- Protocol details: chemical genetic growth profiling, strain panel (AID 1159580);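 also: tested at 20 µM; growth read once vehicle control cultures reached saturation at 30 °C; 1 = growth at the plate median or of vehicle wells; lower values mean less growth of the strain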
- Measurement setup: S. cerevisiae deletion strains, growth OD, locus YMR307W, strain GAS1, active compounds read low
Among all 5,500 compounds or so, about 2,000 (36%) were called active. Roughly 18% stayed inconclusive and do not appear here. The list shows a part of the results.
Entries and their measured normalized growth follow.

Consider the reported normalized growth for these compounds:
Compound: CCOC(=O)CCC(=O)O[C@H]1[C@H](O[C@@H]2[C@@H](C)[C@H](O[C@H]3C[C@@](C)(OC)[C@@H](O)[C@H](C)O3)[C@@H](C)C(=O)O[C@H](CC)[C@@](C)(O)[C@H](O)[C@@H](C)C(=O)[C@H](C)C[C@@]2(C)O)O[C@H](C)C[C@@H]1N(C)C
Assay value: 0.97 (inactive)
//
Compound: CC[C@H]1OC(=O)[C@H](C)[C@@H](O[C@H]2C[C@@](C)(OC)[C@@H](O)[C@H](C)O2)[C@H](C)[C@@H](O[C@@H]2O[C@H](C)C[C@H](N(C)C)[C@H]2O)[C@](C)(O)C[C@@H](C)CN(C)[C@H](C)[C@@H](O)[C@]1(C)O
Assay value: 0.788 (inactive)

Continue with the next compound.
Report normalized growth, nothing else, for this compound: CC1=C(C(C)O)C2=NC1C=c1[nH]c(c(C)c1C(C)O)=Cc1[nH]c(c(CCC(=O)O)c1C)C=c1[nH]c(c(C)c1CCC(=O)O)=C2 (stereo not drawn)
0.82 (inactive)

* * *

Entries and their measured normalized growth follow.
- Protocol details: chemical genetic growth profiling, strain panel (AID 1159580)
- Measurement setup: S. cerevisiae deletion strains, growth OD, locus YLR262C, strain YPT6 (second series), active compounds read low
Among all 5,500 compounds or so, about 2,000 (36%) were called active. Roughly 18% stayed inconclusive and do not appear here. The list shows a part of the results.
Answer with a bare number; do not write a unit.

Consider the reported normalized growth for these compounds:
Compound: CCOC(=O)C(Cc1ccc(O)cc1)NC(C)=O (stereo not given)
normalized growth: 0.968
--
Compound: c1cncc(C2CCCCN2)c1 (stereo not given)
normalized growth: 0.986
--
Compound: CC(=O)NC1SCCC1=O (stereo not given)
normalized growth: 0.99

Report normalized growth, nothing else, for this compound: `CC(C)OC(=O)C(C)(C)Oc1ccc(C(=O)c2ccc(Cl)cc2)cc1`
0.962

Report normalized growth, nothing else, for this compound: `CCCCCCCCCCCCCCCC[N+](C)(C)C`
0.0788

Report normalized growth, nothing else, for this compound: `CC(=O)OC(C)(C)[C@@H]1Cc2cc3ccc(=O)oc3cc2O1`
1.01

Report normalized growth, nothing else, for this compound: `CCOC(=O)CCC(=O)O[C@H]1[C@H](O[C@@H]2[C@@H](C)[C@H](O[C@H]3C[C@@](C)(OC)[C@@H](O)[C@H](C)O3)[C@@H](C)C(=O)O[C@H](CC)[C@@](C)(O)[C@H](O)[C@@H](C)C(=O)[C@H](C)C[C@@]2(C)O)O[C@H](C)C[C@@H]1N(C)C`
1.04

* * *

- Protocol details: chemical genetic growth profiling, strain panel (AID 1159580);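 also: tested at 20 µM; growth read once vehicle control cultures reached saturation at 30 °C; 1 = growth at the plate median or of vehicle wells; lower values mean less growth of the strain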
- Measurement setup: S. cerevisiae deletion strains, growth OD, locus YBR021W, strain FUR4
About 2,000 (36%) of roughly 5,500 compounds were called active. Roughly 18% stayed inconclusive and do not appear here. Cut-off read from the data, not from the text of the source: active = normalized growth mostly below about 0.91 (no sharp cut-off); inconclusive = no clear call, values can overlap the other calls; inactive = mostly above about 0.92. This is one part of the list.
Outcome field: choose from class 1 for active, class 0 for inactive

Example entries begin here.
Compound: COC1=C(OC)C(=O)C(C/C=C(\C)CC/C=C(\C)CC/C=C(\C)CC/C=C(/C)CC/C=C(\C)CC/C=C(\C)CC/C=C(\C)CC/C=C(\C)CC/C=C(\C)CCC=C(C)C)=C(C)C1=O
Category label: class 0

Compound: CC(=O)NC1SCCC1=O (stereo not given)
Category label: class 0

Compound: C[C@H]1OC(n2cc(F)c(=O)[nH]c2=O)C(O)[C@@H]1O (stereo not given in full)
Category label: class 0

Compound: CC(C)OC(=O)C(C)(C)Oc1ccc(C(=O)c2ccc(Cl)cc2)cc1
Category label: class 0

Compound: COc1cc2c(cc1OC)C(=O)OC2
Category label: class 0

Compound: NCC1CCC(C(=O)O)CC1 (stereo not given)
Category label: class 0

Could you please tell me the result logged for CC1CC2C3CC(F)C4=CC(=O)C=CC4(C)C3(F)C(O)CC2(C)C1(O)C(=O)CO (stereo not given) in this assay?
class 0

Could you please tell me the result logged for C=C(C)C1CNC(C(=O)O)C1CC(=O)O (stereo not given) in this assay?
class 0

Could you please tell me the result logged for `COc1cc2c(cc1OC)[C@@H]1C(=O)c3ccc(OC)c(CC=C(C)C)c3O[C@@H]1CO2` in this assay?
class 0

Could you please tell me the result logged for CC(=O)OCC(=O)[C@H]1CCC2C3CCC4=CC(=O)CC[C@]4(C)C3CC[C@@]21C (stereo not given in full) in this assay?
class 0

Could you please tell me the result logged for `CN[C@@H](C)[C@@H](O)c1ccccc1` in this assay?
class 0

Could you please tell me the result logged for `CCOC(=O)CCC(=O)O[C@H]1[C@H](O[C@@H]2[C@@H](C)[C@H](O[C@H]3C[C@@](C)(OC)[C@@H](O)[C@H](C)O3)[C@@H](C)C(=O)O[C@H](CC)[C@@](C)(O)[C@H](O)[C@@H](C)C(=O)[C@H](C)C[C@@]2(C)O)O[C@H](C)C[C@@H]1N(C)C` in this assay?
class 0

Could you please tell me the result logged for CC(=O)OCC(=O)[C@@]1(O)CCC2C3CCC4=CC(=O)CC[C@]4(C)C3C(=O)C[C@@]21C (stereo not given in full) in this assay?
class 0

* * *

- Protocol details: chemical genetic growth profiling, strain panel (AID 1159580);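 also: tested at 20 µM; growth read once vehicle control cultures reached saturation at 30 °C; 1 = growth at the plate median or of vehicle wells; lower values mean less growth of the strain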
- Measurement setup: S. cerevisiae deletion strains, growth OD, locus YOR290C, strain snf2
Screen size: about 5,500 compounds; about 2,000 (36%) were called active. Not shown: some 18% with an inconclusive outcome. No stated cut-off is given here; in the data, active means normalized growth mostly below about 0.91 (no sharp cut-off); inconclusive means no clear call, values can overlap the other calls; inactive means mostly above about 0.92. The list shows a part of the results.
Outcome field: choose from active, inactive

Molecule: Cc1cccc(C)c1OCC(C)N (centres undefined)
Category label: inactive
//
Molecule: CCC(=O)O[C@H]1[C@H](O[C@@H]2[C@@H](C)[C@H](O[C@H]3C[C@@](C)(OC)[C@@H](O)[C@H](C)O3)[C@@H](C)C(=O)O[C@H](CC)[C@@](C)(O)[C@H](O)[C@@H](C)C(=O)[C@H](C)C[C@@]2(C)O)O[C@H](C)C[C@@H]1N(C)C
Category label: active
//
Molecule: COCCc1ccc(OCC(O)CNC(C)C)cc1 (centres undefined)
Category label: inactive

Kindly review the next molecule as well.
Could you please tell me the result logged for `COc1ccc2c(c1OC)C(=O)O[C@H]2[C@H]1c2cc3c(cc2CCN1C)OCO3` in this assay?
inactive

* * *

Entries and their measured normalized growth follow.
- Protocol details: chemical genetic growth profiling, strain panel (AID 1159580);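 also: tested at 20 µM; growth read once vehicle control cultures reached saturation at 30 °C; 1 = growth at the plate median or of vehicle wells; lower values mean less growth of the strain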
- Measurement setup: S. cerevisiae deletion strains, growth OD, locus YPL055C, strain LGE1, active compounds read low
Screen size: about 5,500 compounds; about 2,000 (36%) were called active. Not shown: some 18% with an inconclusive outcome. The list shows a part of the results.
Answer with a bare number; do not write a unit.

Compound: COc1cccc(OC)c1C(C)(O)C(OC)OC (stereo not given)
normalized growth: 1.03
--
Compound: CCOc1ccc(/C=C(\C#N)c2cccc(Cl)c2)cc1
normalized growth: 0.95
--
Compound: CNCCc1ccccn1
normalized growth: 1.04
--
Compound: C[C@H]1OC(n2cc(F)c(=O)[nH]c2=O)C(O)[C@@H]1O (stereo not given in full)
normalized growth: 1.02

Report normalized growth, nothing else, for this compound: CNCC(O)c1cccc(O)c1 (stereo not given)
0.984

Report normalized growth, nothing else, for this compound: `c1ccc(N=Nc2ccc(Nc3ccccc3)cc2)cc1`
0.626

Report normalized growth, nothing else, for this compound: `COc1ccc2c(c1)O[C@@H]1COc3cc(OC)c(OC)cc3[C@@H]1C2=O`
0.775

Report normalized growth, nothing else, for this compound: `COc1cc2c(cc1OC)[C@@H]1C(=O)c3ccc4c(c3O[C@@H]1CO2)C=CC(C)(C)O4`
0.995

Report normalized growth, nothing else, for this compound: `CN1CCC(=C2c3ccccc3C=Cc3ccccc32)CC1`
0.973

Report normalized growth, nothing else, for this compound: `CN1CCC(=C2c3ccccc3Sc3ccccc32)CC1`
0.958

Report normalized growth, nothing else, for this compound: `NNC(N)=O`
1.05

Report normalized growth, nothing else, for this compound: `CCOC(=O)C(=CNNC(=O)c1ccccc1-n1cccc1)C(=O)OCC`
0.975

Report normalized growth, nothing else, for this compound: `S=c1nc[nH]c2nc[nH]c12`
0.992

Report normalized growth, nothing else, for this compound: `c1ccc(N=Nc2ccccc2)cc1`
0.995

Report normalized growth, nothing else, for this compound: `CN1CCC(=C2c3ccccc3CC(=O)c3sccc32)CC1`
1.01
